Entries annotated with measured growth inhibition
experiment: NCI Yeast Anticancer Drug Screen. Data for the mlh1 rad18 strain (AID 175); conditions: S. cerevisiae mlh1 rad18 strain growth inhibition; at 50.0 µM; active compounds read high
Compounds without any hit were thinned out: in the full panel of roughly 79,000, 15% have a hit.
Lab book: enter the figure in %, no units written.

These recorded examples may help you get a feel for the data.
O=C([CH-]C(=O)C(F)(F)F)c1ccccc1.O=C([CH-]C(=O)C(F)(F)F)c1ccccc1.O=C([CH-]C(=O)C(F)(F)F)c1ccccc1.[Ru+3] | 4.75
C1CCC(CN2CCN(CC3CCCCO3)CC2)OC1 (centres undefined) | 3.05
O=C(O)c1ccc(C(=O)c2ccc(C(=O)c3ccc(C(=O)O)cc3)cc2)cc1 | -14.8
CC1=C2N3C[C@@H](n4c(=O)n(C)c(=O)n43)C23CCC1n1c(=O)n(C)c(=O)n13 | -9.95
CCN(CC)c1ccc2c(c1)Oc1ccc(N(C(C)=O)c3ccccc3)cc1C21OC(=O)c2ccccc21 (centres undefined) | 19.2
COc1ccc(Nc2cc(N)nc(N)n2)c(=S)[nH]1 | -0.95

Fill in the blank: the reported growth inhibition of COc1ccc(COCc2ccc(OC)cc2)cc1 is ____.
12.7

Try the compound CCCCCc1c2c(c(CCCCC)c3c1-c1cccc4cccc-3c14)-c1ccc(C)cc1C2
-19.4

Again, but for CC1(C)CC(C)(Br)C(Br)C(=O)C1C(O)(C(F)(F)F)C(F)(F)F (centres undefined)
99.8

Where do the numbers come from? From PubChem BioAssay (NCI).
